Biological target: MC-1R (Homo sapiens, UniProt Q01726)
Sequence (Q01726 whole entry): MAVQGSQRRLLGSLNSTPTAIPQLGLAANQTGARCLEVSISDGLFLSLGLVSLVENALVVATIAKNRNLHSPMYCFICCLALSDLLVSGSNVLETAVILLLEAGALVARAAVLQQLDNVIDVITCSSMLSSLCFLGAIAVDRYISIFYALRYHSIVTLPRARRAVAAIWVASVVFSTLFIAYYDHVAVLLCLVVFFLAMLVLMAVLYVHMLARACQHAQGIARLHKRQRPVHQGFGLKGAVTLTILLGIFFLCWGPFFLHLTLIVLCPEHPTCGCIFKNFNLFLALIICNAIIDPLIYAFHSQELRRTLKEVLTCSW
Assay: cAMP accumulation via β-galactosidase (β-Gal) reporter system (cAMP Hunter GPCR assay)
Format: cell-based
Settings: ratio of EC-50 values, MC-1R versus MC-4R
Where a SMILES comes first, the peptide text is derived from it. Bridges are numbered along the chain shown (N, C = ends). [ ]: non-standard residue; d: D form. Pen = CC(C)(S)[C@H](N)C(=O)O; hCys = N[C@@H](CCS)C(=O)O
measure: Selectivity Ratios MC4R/MC1R

* CC(=O)N[C@@H](CCCNC(=N)N)C(=O)N[C@H]1CCSSC(C)(C)[C@@H](C(N)=O)NC(=O)[C@H](Cc2c[nH]c3ccccc23)NC(=O)[C@H](CCCNC(=N)N)NC(=O)[C@@H](Cc2ccccc2)NC(=O)[C@H](CCC(N)=O)NC1=O [Compound 001555C, Ac-Arg-(hCys-Gln-D-Phe-Arg-Trp-Pen)-NH2] (Ac-R[hCys]Q[dF]RW[Pen]-NH2; disulfide 2-7) | 244.35
